Kindly state protein stability index for each of the entries shown.
B1: CLK3 (parent)
chain: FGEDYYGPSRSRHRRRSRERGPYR

Variants of: B1
test.details: protein stability index of a GFP-peptide fusion (GPS, HEK-293T) (PSI 1-6); higher = more stable;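 note: lentivirally expressed fusions sorted by FACS into six bins by GFP to DsRed ratio, PSI derived from sequencing read proportions per bin multiplied by bin number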
assay.setup: c terminus: a fixed tail appended
Just the number, please, no unit after it.

Q: Would you kindly share the measured protein stability index for P22E ?
Ans: 2.05

Q: Would you kindly share the measured protein stability index for R14C ?
Ans: 1.85

Q: Would you kindly share the measured protein stability index for S9P ?
Ans: 2.56

Q: Would you kindly share the measured protein stability index for H13F ?
Ans: 2.64

Q: Would you kindly share the measured protein stability index for R18L ?
Ans: 2.22

Q: Would you kindly share the measured protein stability index for P22K ?
Ans: 2.19

Q: Would you kindly share the measured protein stability index for H13G ?
Ans: 2.46

Q: Would you kindly share the measured protein stability index for P22N ?
Ans: 2.54
